# Lookup of reported double positive events keyed by entry
experiment: reduced mouse 2C T cell binding to pMHC/ICAM-1 vesicles – MLPCN validation set, flow cytometry, LFA-1/ICAM-1 modulator project, pilot screen (AID 2523); conditions: 2C mouse CD8+ T cells, at 7 µM, stronger effect = lower value; measured here: CD8+/vesicle+ event percentage

# COMPOUND, double positive events / %
records = [
    ("COc1ccc(OC)c(S(=O)(=O)N2CCCc3ccccc32)c1", 58.6),
    ("COC(=O)c1ccc(C(=O)OC)c(NC(=O)C(C)C)c1", 63.1),
    ("CCCCOc1ccc(CC(=O)NO)cc1", 48.1),
    ("C[C@]12CCC(=O)C=C1CC[C@@H]1[C@@H]2[C@@H](O)C[C@@]2(C)[C@H]1CC[C@]2(O)C(=O)COC(=O)CCC(=O)O", 43.7),
    ("NC(=O)c1cnccn1", 60.5),
    ("COc1cc(C2Nc3ccccc3NC3=C2C(=O)CC(c2ccc(OC)c(OC)c2)C3)ccc1O (configuration not stated)", 53.7),
    ("Clc1ccc2c(c1)CCc1cccnc1C2=C1CCNCC1", 63.9),
    ("COc1c2ccoc2nc2c(OC)cccc12", 64.2),
    ("CSCCC(NC(=O)/C(=C/c1ccc2c(c1)OCO2)NC(=O)c1cccc([N+](=O)[O-])c1)C(=O)O (configuration not stated)", 63.7),
    ("CCN(CC)CCNC(=O)c1ccc(N)cc1", 63.2),
    ("O=C1C(Cc2c[nH]c3ccccc23)NC(=S)N1Cc1ccccc1 (configuration not stated)", 67.5),
    ("COC(=O)C1[C@H]2C(=O)N(Cc3cccs3)C[C@]23C=C[C@H]1O3 (some centres not stated)", 58.4),
    ("O=C1C(=O)N2C(=C1C(=O)N1CCCCCC1)c1ccccc1CC21CCCC1", 59.4),
    ("CCCCCC#CCC#CCC#CCC#CCCCC(=O)O", 62.5),
    ("Cc1ccc(-c2nnc(-c3ccc4c(c3)OCO4)o2)cc1", 57.9),
    ("CC1(C)[C@@H](O)CC[C@]2(C)[C@H]3C(=O)C=C4[C@@H]5C[C@@](C)(C(=O)O)CC[C@]5(C)CC[C@@]4(C)[C@]3(C)CC[C@@H]12", 64.3),
    ("CC12CCC(C(=O)NCc3ccccn3)(OC1=O)C2(C)C (configuration not stated)", 61.8),
    ("O=C(NC1CCCCC1)c1cc2nc(-c3ccco3)cc(C(F)(F)F)n2n1", 43.2),
    ("COc1ccc2cc([C@H](C)C(=O)O)ccc2c1", 70.5),
    ("Cc1ccc2c(c1)C(O)(C1COC(C)(C)CC1=O)C(=O)N2C (configuration not stated)", 59.3),
    ("C/C=C(/C(=C/C)c1ccc(O)cc1)c1ccc(O)cc1", 63.9),
    ("CC(C)(C)OC(=O)NCCC(=O)Oc1ccc2ccc(=O)oc2c1", 56.1),
]

* * *

biological target: Beta-2 adrenergic receptor (Homo sapiens) (UniProt P07550); assay: agonist-induced loss of surface beta2AR – cell-based, FAP fluorogen, flow cytometry, validation set, pilot screen (AID 504459); conditions: Am2.2-beta2AR cells, at 10 µM, stronger effect = higher value;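 note: agonist-driven loss of surface beta2AR via internalization measured by FAP dye flow cytometry; reference of the scale not given here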
Sequence (P07550 whole entry, looked up): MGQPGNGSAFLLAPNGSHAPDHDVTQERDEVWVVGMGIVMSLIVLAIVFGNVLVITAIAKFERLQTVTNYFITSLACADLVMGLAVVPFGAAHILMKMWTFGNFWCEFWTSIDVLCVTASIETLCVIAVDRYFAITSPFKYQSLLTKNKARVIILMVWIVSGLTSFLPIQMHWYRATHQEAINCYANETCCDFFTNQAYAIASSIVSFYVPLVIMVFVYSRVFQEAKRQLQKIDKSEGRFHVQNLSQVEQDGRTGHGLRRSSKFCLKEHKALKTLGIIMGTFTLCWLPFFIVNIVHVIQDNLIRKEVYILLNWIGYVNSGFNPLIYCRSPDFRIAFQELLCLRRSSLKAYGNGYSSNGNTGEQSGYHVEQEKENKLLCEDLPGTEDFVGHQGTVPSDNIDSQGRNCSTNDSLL
# Lookup of reported response keyed by entry
RECORDED_ENDPOINT: response (%)

# MOLECULE, UNIT_TAG, NUMERIC_VALUE
measured = [
    ("CC(=O)CCc1c(C)c2cccc(C)c2[nH]c1=O", "%", -3.42),
    ("COc1c(C=O)c(CCN(C)C(=O)c2ccc(F)cc2)cc2c1OCO2", "%", -22.5),
    ("N#C/C(=C/c1ccccc1)C(=O)NCc1ccccc1", "%", -0.74),
    ("CCCCOc1ccc(C(=O)CCN2CCCCC2)cc1", "%", 26.6),
    ("O=C(CNC(=O)OCc1ccccc1)Oc1cc2oc(=O)cc(-c3ccccc3)c2cc1Cl", "%", -13.2),
    ("CC(C)CC(=O)Nc1ccc2oc(-c3ccncc3)nc2c1", "%", -11.1),
    ("CCN(CC)CCNC(=O)c1ccc(N)cc1", "%", -4.02),
    ("CC1(C)CC(C(CC(=O)N2CCCC2)Cc2ccccc2)CCO1 (configuration not stated)", "%", -11),
    ("Cn1cc(/C=C/C(=O)c2ccccc2)c2ccccc21", "%", 32.6),
    ("C=CCC1(Cl)C(=O)C(Cl)=C(N2CCOCC2)C1(OC)OC (configuration not stated)", "%", -2.88),
    ("CC(=O)c1cccc2c(O)c(C3=Nc4ccccc4C3=O)[nH]c12", "%", -1.02),
    ("O=C(CCCn1c(=O)oc2ccccc21)N1CCN(c2ccc(F)cc2)CC1", "%", 10.4),
]
